Reported pIC50 against Platelet-derived growth factor receptor beta (Homo sapiens, UniProt P09619), gathered from multiple publications, appears below.
Sequence (P09619 whole entry): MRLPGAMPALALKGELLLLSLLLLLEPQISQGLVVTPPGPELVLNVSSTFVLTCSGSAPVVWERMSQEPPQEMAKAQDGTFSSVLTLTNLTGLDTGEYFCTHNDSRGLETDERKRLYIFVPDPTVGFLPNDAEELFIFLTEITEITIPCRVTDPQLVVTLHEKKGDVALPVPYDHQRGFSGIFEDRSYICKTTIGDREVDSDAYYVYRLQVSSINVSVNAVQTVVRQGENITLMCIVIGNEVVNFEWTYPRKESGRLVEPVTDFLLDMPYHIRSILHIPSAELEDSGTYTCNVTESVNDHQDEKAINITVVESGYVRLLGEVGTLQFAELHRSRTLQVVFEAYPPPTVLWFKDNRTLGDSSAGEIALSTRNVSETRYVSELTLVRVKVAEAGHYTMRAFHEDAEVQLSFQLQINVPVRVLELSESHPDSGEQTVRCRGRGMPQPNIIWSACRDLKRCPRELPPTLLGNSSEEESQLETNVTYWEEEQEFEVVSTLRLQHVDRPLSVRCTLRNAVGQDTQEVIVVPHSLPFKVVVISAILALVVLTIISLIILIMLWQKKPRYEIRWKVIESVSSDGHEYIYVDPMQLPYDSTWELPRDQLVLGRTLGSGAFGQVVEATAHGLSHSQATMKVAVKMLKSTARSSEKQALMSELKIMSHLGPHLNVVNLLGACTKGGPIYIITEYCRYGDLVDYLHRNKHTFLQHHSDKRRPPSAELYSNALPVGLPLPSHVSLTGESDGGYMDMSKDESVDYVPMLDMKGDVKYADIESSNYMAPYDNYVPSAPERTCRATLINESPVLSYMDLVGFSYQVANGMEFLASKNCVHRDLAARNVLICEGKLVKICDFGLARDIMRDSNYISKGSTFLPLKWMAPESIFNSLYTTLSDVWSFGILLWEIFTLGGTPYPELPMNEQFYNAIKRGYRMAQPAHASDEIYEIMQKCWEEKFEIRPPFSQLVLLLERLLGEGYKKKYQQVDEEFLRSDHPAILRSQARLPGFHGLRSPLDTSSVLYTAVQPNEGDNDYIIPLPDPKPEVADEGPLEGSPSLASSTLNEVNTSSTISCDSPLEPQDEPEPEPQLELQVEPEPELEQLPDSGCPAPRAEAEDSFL
pIC50: −log10 of the molar value.
Result type: pIC50

CNc1noc2c(-c3ccc4c(N5CCOC[C@@H]5C)nncc4c3)c(C)ccc12 | 6.08

(1) COc1ccc2c(c1)/C(=N/NC(=O)c1ccc(NC(=O)Nc3ccccc3)cc1)C(=O)N2
(2) COC(=O)c1ccc2c(c1)NC(=O)/C2=C(\Nc1ccc(-n2cccc2CN(C)C)cc1)c1ccccc1
// compare measured pIC50, left 1 , right 2 , return larger State the label of the item chosen.
2
(2: 7.96, 1: 5.44)

----------
Reported pIC50 against Platelet-derived growth factor receptor beta (Homo sapiens, UniProt P09619), gathered from multiple publications, appears below.
pIC50: −log10 of the molar value.
Result type: pIC50

COc1cccc(NC(=O)Nc2ccc(C(=O)N/N=C3\C(=O)Nc4ccc(Cl)cc43)cc2)c1 | 5.89

(a) Fc1ccc(Nc2ncnc3[nH]c(CCc4ccccc4)cc23)cc1Br
(b) CNS(=O)(=O)c1ccc2c(c1)/C(=C/c1[nH]c3c(c1CCCN1CCC(O)CC1)CCCC3)C(=O)N2
(c) O=C(Nc1ccc(Nc2ncnc3ccccc23)cc1)Nc1cccc(Br)c1
(d) Cc1[nH]c2c(c1C(=O)NCCN1CCOCC1)CCC/C2=C1/C(=O)Nc2ccc(F)cc21
Ascending sort, pIC50. Answer format: the labels, in the requested order.
a, b, c, d
(a: 3.72, b: 5.33, c: 6.07, d: 7.88)
